- Test system: PC-3 cells
- experiment notes: MTT assay, PC-3
- measurement context: Homo sapiens, PC-3, read-out: Inhibition rate (%, 10 μM) PC-3
Can you tell me inhibition at 10 µM for the items I'm about to list?
Could you give me the number in %? Just the number is fine.

Problem: Can you look up the measured inhibition at 10 µM of `Cn1c(COc2ccc(/C=N/c3ccc(Cl)c(C(F)(F)F)c3)cc2)nc2ccccc2c1=O` for me?
Result: 22.6

Problem: Can you look up the measured inhibition at 10 µM of `Cn1c(COc2ccc(/C=N/c3ccc(F)cc3F)cc2)nc2ccccc2c1=O` for me?
Result: 25.8

Problem: Can you look up the measured inhibition at 10 µM of `COc1ccccc1/N=C/c1ccc(OCc2nc3ccccc3c(=O)n2C)cc1` for me?
Result: 38.2

Problem: Can you look up the measured inhibition at 10 µM of `Cn1c(COc2ccc(/C=N/c3cccc(F)c3)cc2)nc2ccccc2c1=O` for me?
Result: 4.76

Problem: Can you look up the measured inhibition at 10 µM of `Cn1c(COc2ccc(/C=N/c3ccc(F)c(F)c3)cc2)nc2ccccc2c1=O` for me?
Result: 57.5

Problem: Can you look up the measured inhibition at 10 µM of `Cn1c(COc2ccc(/C=N/c3ccc(F)cc3)cc2)nc2ccccc2c1=O` for me?
Result: 14.8

Problem: Can you look up the measured inhibition at 10 µM of `Cn1c(COc2ccc(/C=N/c3ccccc3)cc2)nc2ccccc2c1=O` for me?
Result: 7.36

Problem: Can you look up the measured inhibition at 10 µM of `Cn1c(COc2ccc(/C=N/c3ccccc3F)cc2)nc2ccccc2c1=O` for me?
Result: 5.46

----------
- Test system: A549 cells
- experiment notes: MTT assay, A549
- measurement context: Homo sapiens, A549, read-out: Inhibition rate (%, 10 μM) A549
observation type: inhibition at 10 µM
Answer with the figure and its unit, nothing else.

Problem: Provide value of inhibition at 10 µM for this record tested with A549 cells: O=c1[nH]cc(F)c(=O)[nH]1 [5-Fluorouracil, reference compound]
Result: 40.4%

Problem: Provide value of inhibition at 10 µM for this record tested with A549 cells: `Cn1c(COc2ccc(/C=N/c3cccc(F)c3)cc2)nc2ccccc2c1=O`
Result: 15.6%

Problem: Provide value of inhibition at 10 µM for this record tested with A549 cells: `Cn1c(COc2ccc(/C=N/c3ccccc3)cc2)nc2ccccc2c1=O`
Result: 15.4%

Problem: Provide value of inhibition at 10 µM for this record tested with A549 cells: `Cn1c(COc2ccc(/C=N/c3cc(F)cc(F)c3)cc2)nc2ccccc2c1=O`
Result: 31.2%

Problem: Provide value of inhibition at 10 µM for this record tested with A549 cells: `Cn1c(COc2ccc(/C=N/c3ccc(F)cc3F)cc2)nc2ccccc2c1=O`
Result: 33.3%

Problem: Provide value of inhibition at 10 µM for this record tested with A549 cells: `COc1ccccc1/N=C/c1ccc(OCc2nc3ccccc3c(=O)n2C)cc1`
Result: 20.8%

Problem: Provide value of inhibition at 10 µM for this record tested with A549 cells: `Cn1c(COc2ccc(/C=N/c3ccc(Cl)c(C(F)(F)F)c3)cc2)nc2ccccc2c1=O`
Result: 15.6%

Problem: Provide value of inhibition at 10 µM for this record tested with A549 cells: `COc1ccc(/N=C/c2ccc(OCc3nc4ccccc4c(=O)n3C)cc2)cc1`
Result: 25.9%

Problem: Provide value of inhibition at 10 µM for this record tested with A549 cells: `Cc1ccc(/N=C/c2ccc(OCc3nc4ccccc4c(=O)n3C)cc2)cc1`
Result: 12.1%

Problem: Provide value of inhibition at 10 µM for this record tested with A549 cells: `Cn1c(COc2ccc(/C=N/c3ccccc3F)cc2)nc2ccccc2c1=O`
Result: 16.3%

Problem: Provide value of inhibition at 10 µM for this record tested with A549 cells: `Cn1c(COc2ccc(/C=N/c3ccc(F)cc3)cc2)nc2ccccc2c1=O`
Result: 14.8%

Problem: Provide value of inhibition at 10 µM for this record tested with A549 cells: `Cn1c(COc2ccc(/C=N/c3cccc(Br)c3)cc2)nc2ccccc2c1=O`
Result: 18%

Problem: Provide value of inhibition at 10 µM for this record tested with A549 cells: `Cn1c(COc2ccc(/C=N/c3cccc(Cl)c3)cc2)nc2ccccc2c1=O`
Result: 23.3%

Problem: Provide value of inhibition at 10 µM for this record tested with A549 cells: `Cc1ccccc1/N=C/c1ccc(OCc2nc3ccccc3c(=O)n2C)cc1`
Result: 14.5%

Problem: Provide value of inhibition at 10 µM for this record tested with A549 cells: `Cn1c(COc2ccc(/C=N/c3c(F)cccc3F)cc2)nc2ccccc2c1=O`
Result: 15.2%

Problem: Provide value of inhibition at 10 µM for this record tested with A549 cells: `Cn1c(COc2ccc(/C=N/c3ccc(F)c(F)c3)cc2)nc2ccccc2c1=O`
Result: 27%

Problem: Provide value of inhibition at 10 µM for this record tested with A549 cells: `Cn1c(COc2ccc(/C=N/c3ccc(F)c(Cl)c3)cc2)nc2ccccc2c1=O`
Result: 18.7%

Data provenance is paper PMC7006757.
